- SYSTEM: Voltage-dependent N-type calcium channel subunit alpha-1B (Homo sapiens)
- TEST_METHOD_NOTES: In vitro inhibitory activity against N-type calcium channel in the IMR-32 human neuroblastoma cells
Square brackets hold non-standard residues; d marks the D form. Peptide text beside a SMILES is read from it. * marks the point of attachment. NMeL = CN[C@@H](CC(C)C)C(=O)O; Bz = O=C(c1ccccc1)*; NHtBu = CC(C)(C)N*
MEASURED_QUANTITY: IC50 (µM)

Would you please look over these solved cases?
MOLECULE: CC(C)CCN(C)[C@@H](CC(C)C)C(=O)N[C@@H](Cc1ccc(OC(=O)c2ccccc2)cc1)C(=O)NC(C)(C)C
UNIT_OF_MEASUREMENT: µM
MEASURED_RESULT: 0.32
//
MOLECULE: CC(C)C[C@@H](C(=O)N[C@@H](Cc1ccc(OC(=O)c2ccccc2)cc1)C(=O)NC(C)(C)C)N(C)C(C)C
UNIT_OF_MEASUREMENT: µM
MEASURED_RESULT: 2.8
//
MOLECULE: CN[C@@H](CC(C)C)C(=O)N[C@@H](Cc1ccc(OC(=O)c2ccccc2)cc1)C(=O)NC(C)(C)C (H-[NMeL]-Tyr(Bz)-NHtBu)
UNIT_OF_MEASUREMENT: µM
MEASURED_RESULT: 2.3

[a] CC(C)C[C@@H](C(=O)N[C@@H](Cc1ccc(OC(=O)c2ccccc2)cc1)C(=O)NC(C)(C)C)N(C)C1CCCCC1
[b] CC(C)C[C@@H](C(=O)N[C@@H](Cc1ccc(OC(=O)c2ccccc2)cc1)C(=O)NC(C)(C)C)N(C)CCC(C)(C)C
[c] CCC(C)N(C)[C@@H](CC(C)C)C(=O)N[C@@H](Cc1ccc(OC(=O)c2ccccc2)cc1)C(=O)NC(C)(C)C (stereo partly drawn)
[d] CC(C)C[C@@H](C(=O)N[C@@H](Cc1ccc(OC(=O)c2ccccc2)cc1)C(=O)NC(C)(C)C)N1CCOCC1
Sort low-to-high on IC50, please. // ordering of labels required in reply
a, b, c, d

---

- SYSTEM: Voltage-dependent N-type calcium channel subunit alpha-1B (Homo sapiens, UniProt Q00975)
- Sequence (Q00975 whole entry): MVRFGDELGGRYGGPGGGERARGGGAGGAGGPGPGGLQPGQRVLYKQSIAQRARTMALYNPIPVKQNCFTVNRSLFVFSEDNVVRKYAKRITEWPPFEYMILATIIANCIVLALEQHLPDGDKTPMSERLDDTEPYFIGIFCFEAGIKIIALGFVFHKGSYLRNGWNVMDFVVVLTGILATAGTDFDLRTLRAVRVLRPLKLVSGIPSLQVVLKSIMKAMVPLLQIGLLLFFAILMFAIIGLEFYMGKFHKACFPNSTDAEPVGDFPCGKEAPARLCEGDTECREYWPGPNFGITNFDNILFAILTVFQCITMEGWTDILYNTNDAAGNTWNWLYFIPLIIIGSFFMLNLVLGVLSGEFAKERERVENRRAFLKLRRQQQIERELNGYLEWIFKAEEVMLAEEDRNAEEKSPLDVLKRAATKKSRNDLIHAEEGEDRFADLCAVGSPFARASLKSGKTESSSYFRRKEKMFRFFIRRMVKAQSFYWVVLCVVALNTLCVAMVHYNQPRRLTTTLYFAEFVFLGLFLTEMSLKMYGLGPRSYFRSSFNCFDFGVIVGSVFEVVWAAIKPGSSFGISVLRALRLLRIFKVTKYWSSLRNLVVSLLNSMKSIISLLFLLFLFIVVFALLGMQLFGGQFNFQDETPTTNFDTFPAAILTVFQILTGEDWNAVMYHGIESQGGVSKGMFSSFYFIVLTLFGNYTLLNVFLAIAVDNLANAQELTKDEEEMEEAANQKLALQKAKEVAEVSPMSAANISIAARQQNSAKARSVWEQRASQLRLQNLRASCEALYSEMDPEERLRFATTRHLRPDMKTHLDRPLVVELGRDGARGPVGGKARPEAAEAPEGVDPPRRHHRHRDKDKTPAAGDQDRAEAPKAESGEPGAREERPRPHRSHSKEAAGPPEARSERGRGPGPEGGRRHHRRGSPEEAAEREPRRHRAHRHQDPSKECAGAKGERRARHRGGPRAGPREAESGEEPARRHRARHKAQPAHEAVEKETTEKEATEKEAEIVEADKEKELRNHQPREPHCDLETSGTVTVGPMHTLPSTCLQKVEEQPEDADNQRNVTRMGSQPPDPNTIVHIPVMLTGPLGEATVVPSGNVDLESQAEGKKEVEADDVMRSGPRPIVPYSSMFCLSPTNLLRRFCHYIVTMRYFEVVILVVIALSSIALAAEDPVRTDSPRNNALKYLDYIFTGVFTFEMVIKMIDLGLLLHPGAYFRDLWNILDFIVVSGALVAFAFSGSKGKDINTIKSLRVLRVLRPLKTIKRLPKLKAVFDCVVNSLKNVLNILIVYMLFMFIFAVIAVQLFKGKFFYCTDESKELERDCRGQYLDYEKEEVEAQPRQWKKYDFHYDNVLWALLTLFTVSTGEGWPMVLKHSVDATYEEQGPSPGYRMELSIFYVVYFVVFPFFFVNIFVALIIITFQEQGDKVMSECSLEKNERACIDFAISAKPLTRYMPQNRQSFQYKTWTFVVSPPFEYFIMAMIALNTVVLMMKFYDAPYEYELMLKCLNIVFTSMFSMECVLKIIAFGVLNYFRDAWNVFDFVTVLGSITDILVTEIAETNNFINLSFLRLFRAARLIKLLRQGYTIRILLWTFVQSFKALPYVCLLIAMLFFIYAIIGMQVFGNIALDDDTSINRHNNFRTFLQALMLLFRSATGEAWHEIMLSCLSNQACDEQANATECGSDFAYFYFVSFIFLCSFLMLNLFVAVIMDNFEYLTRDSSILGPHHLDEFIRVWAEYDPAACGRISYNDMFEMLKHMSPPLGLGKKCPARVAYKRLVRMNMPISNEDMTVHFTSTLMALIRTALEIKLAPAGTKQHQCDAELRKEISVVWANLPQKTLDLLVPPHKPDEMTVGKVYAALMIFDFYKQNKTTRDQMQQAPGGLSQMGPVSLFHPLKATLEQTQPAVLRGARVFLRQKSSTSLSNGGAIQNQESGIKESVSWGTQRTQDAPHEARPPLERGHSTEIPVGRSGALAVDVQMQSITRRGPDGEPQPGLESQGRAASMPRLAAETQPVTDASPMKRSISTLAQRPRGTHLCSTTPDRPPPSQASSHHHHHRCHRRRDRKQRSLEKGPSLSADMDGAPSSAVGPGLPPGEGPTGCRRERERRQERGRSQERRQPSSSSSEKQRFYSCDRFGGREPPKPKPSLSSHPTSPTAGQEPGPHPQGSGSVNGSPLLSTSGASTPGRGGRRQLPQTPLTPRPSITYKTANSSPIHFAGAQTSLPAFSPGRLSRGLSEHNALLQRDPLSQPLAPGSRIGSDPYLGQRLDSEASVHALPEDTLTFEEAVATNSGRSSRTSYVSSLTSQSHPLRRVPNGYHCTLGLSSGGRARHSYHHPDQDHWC
- TEST_METHOD_NOTES: In vitro inhibitory activity against N-type calcium channel in the IMR-32 human neuroblastoma cells
Peptide text beside a SMILES is read from it. * marks the point of attachment. Bz = O=C(c1ccccc1)*; NHtBu = CC(C)(C)N*
MEASURED_QUANTITY: IC50 (µM)

Examples with answers:
MOLECULE: CC(C)C[C@@H](C(=O)N[C@@H](Cc1ccc(OC(=O)c2ccccc2)cc1)C(=O)NC(C)(C)C)N(C)CCC(C)O (stereo partly specified)
UNIT_OF_MEASUREMENT: µM
IC50: 2.2

MOLECULE: CC(C)C[C@H](N)C(=O)N[C@@H](Cc1ccc(OC(=O)c2ccccc2)cc1)C(=O)NC(C)(C)C (H-Leu-Tyr(Bz)-NHtBu)
UNIT_OF_MEASUREMENT: µM
IC50: 3.8

MOLECULE: CC(C)C[C@@H](C(=O)N[C@@H](Cc1ccc(OC(=O)c2ccccc2)cc1)C(=O)NC(C)(C)C)N(C)CC1CCCCC1
UNIT_OF_MEASUREMENT: µM
IC50: 0.7

MOLECULE: CC(C)C[C@@H](C(=O)N[C@@H](Cc1ccc(OC(=O)c2ccccc2)cc1)C(=O)NC(C)(C)C)N(C)C
UNIT_OF_MEASUREMENT: µM
IC50: 2.3

MOLECULE: CC(C)C[C@H](NC(=O)N1CCCCCC1)C(=O)N[C@@H](Cc1ccc(OC(=O)c2ccccc2)cc1)C(=O)OC(C)(C)C
UNIT_OF_MEASUREMENT: µM
IC50: 0.32

MOLECULE: CCOC(=O)CN(C)[C@@H](CC(C)C)C(=O)N[C@@H](Cc1ccc(OC(=O)c2ccccc2)cc1)C(=O)NC(C)(C)C
UNIT_OF_MEASUREMENT: µM
IC50: 4.4

MOLECULE: CCCCN(C)[C@@H](CC(C)C)C(=O)N[C@@H](Cc1ccc(OC(=O)c2ccccc2)cc1)C(=O)NC(C)(C)C
UNIT_OF_MEASUREMENT: µM
IC50: 0.28

[1] CC(C)C[C@@H](C(=O)N[C@@H](Cc1ccc(OC(=O)c2ccccc2)cc1)C(=O)NC(C)(C)C)N(C)CC(C)C
[2] CC(C)C[C@H](NC(=O)N1CCCCCC1)C(=O)N[C@@H](Cc1ccc(OC(=O)c2ccccc2)cc1)C(=O)NC(C)(C)C
[3] CC(C)C[C@@H](C(=O)N[C@@H](Cc1ccc(OC(=O)c2ccccc2)cc1)C(=O)NC(C)(C)C)N(C)C1CCOCC1
[4] CC(C)C[C@@H](C(=O)N[C@@H](Cc1ccc(OC(=O)c2ccccc2)cc1)C(=O)NC(C)(C)C)N1CCCCC1
Rank ascending by IC50. Form entry: labels listed in requested order.
1, 2, 4, 3
(1: 0.38 µM, 2: 0.59 µM, 4: 1.4 µM, 3: 3.1 µM)
